# assaySystem: Serine/threonine-protein phosphatase 5 (Homo sapiens) (UniProt P53041)
# Sequence (P53041 whole entry, looked up): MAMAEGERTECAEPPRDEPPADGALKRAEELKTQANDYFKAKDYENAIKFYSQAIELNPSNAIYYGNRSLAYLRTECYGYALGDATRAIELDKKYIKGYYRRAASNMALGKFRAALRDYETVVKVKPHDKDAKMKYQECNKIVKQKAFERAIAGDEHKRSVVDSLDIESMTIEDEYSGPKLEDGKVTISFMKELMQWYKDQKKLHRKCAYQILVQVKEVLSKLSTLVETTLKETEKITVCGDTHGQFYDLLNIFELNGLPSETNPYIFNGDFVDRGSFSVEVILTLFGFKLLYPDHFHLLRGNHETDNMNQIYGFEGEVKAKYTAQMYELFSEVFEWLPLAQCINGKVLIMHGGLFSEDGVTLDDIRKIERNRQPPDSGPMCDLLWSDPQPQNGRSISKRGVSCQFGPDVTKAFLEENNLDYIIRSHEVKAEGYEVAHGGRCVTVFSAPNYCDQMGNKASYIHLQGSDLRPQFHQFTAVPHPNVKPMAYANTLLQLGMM
# methodSummary: PP5 phosphatase inhibition by PP1 hits, confirmation, counter-screen for PP1 inhibitor project, biochemical, fluorescence, triplicate (AID 2360)
# testParameters: purified PP5c, OMFP fluorescence; at 6.7 µM; stronger effect = higher value
Hit rate of the full screen: of about 1,900 compounds, about 85 (4%) were called active. These entries were drawn from the full list.
Measured inhibition of individual entries

O=C1C(=O)N(CC2COc3ccccc3O2)c2ccccc21 (stereo unspecified): -2.89% (inactive)
OCCNc1nc(Nc2ccc(Cl)c(Cl)c2)nc2ccccc12: 6.65% (inactive)
Cc1cc(N/N=C\c2ccc(Br)cc2)nc(-n2nc(C)cc2C)n1: -2.43% (inactive)
CCNS(=O)(=O)c1ccc(NC(=O)Nc2cccc(C(F)(F)F)c2)cc1: 7.24% (inactive)
CCCc1ccc(OCC(=O)NNC(=S)NC(=O)c2ccco2)cc1: -5.19% (inactive)

# next compound below
Please look at this compound and report its inhibition: `O=[N+]([O-])c1ccccc1/C=N/n1c(COc2ccccc2)n[nH]c1=S`
-5.54% (inactive)

====

# assaySystem: Serine/threonine-protein phosphatase 5 (Homo sapiens) (UniProt P53041)
# methodSummary: PP5 phosphatase inhibition by PP1 hits, confirmation, counter-screen for PP1 inhibitor project, biochemical, fluorescence, triplicate (AID 2360)
# testParameters: purified PP5c, OMFP fluorescence; at 6.7 µM; stronger effect = higher value
Screen size: about 1,900 compounds; about 85 (4%) were called active. These entries were drawn from the full list.
measurementType: inhibition (%)
Answer with a number only, understood to be in %.

Reference set (5 entries):
O=C(CSc1nnc(C2CC2)n1Cc1ccccc1)Nc1cccnc1Cl: -2.71
Cc1ccc2nc(N3C(=O)C(O)=C(C(=O)c4ccco4)C3c3cccc(O)c3)sc2c1 (stereo unspecified): -0.83
COc1cnc(-c2ccccn2)nc1Oc1ccc(C(C)(C)C)cc1: 1.77
Clc1ccc2c(c1)C1=C(C(c3ccncc3)O2)C(c2ccc(Br)cc2)n2ncnc2N1 (stereo unspecified): 2.48
NC(N)=N/N=C/c1ccc(OCc2ccc(Cl)cc2Cl)cc1: -2.25

# next molecule below
Recall the reported inhibition of `Cc1ccc(-n2nc3ccc(NC(=O)/C=C/c4ccco4)cc3n2)cc1C` on Serine/threonine-protein phosphatase 5 (Homo sapiens) (UniProt P53041) and write it down.
-6.55
